Below: a set of entries, each annotated with reported Activity.
molecular target: Protein cereblon/Interleukin-1 receptor-associated kinase 3 (Homo sapiens, UniProt Q9Y616+Q96SW2); experiment: Protac activity at CRBN/IRAK3 in LPS-induced human THP1 cells assessed as induction of IRAK3 degradation at 10 uM by Western blot analysis relative to control; type: cell-based; settings: THP-1
Sequence (Q96SW2 whole entry, looked up): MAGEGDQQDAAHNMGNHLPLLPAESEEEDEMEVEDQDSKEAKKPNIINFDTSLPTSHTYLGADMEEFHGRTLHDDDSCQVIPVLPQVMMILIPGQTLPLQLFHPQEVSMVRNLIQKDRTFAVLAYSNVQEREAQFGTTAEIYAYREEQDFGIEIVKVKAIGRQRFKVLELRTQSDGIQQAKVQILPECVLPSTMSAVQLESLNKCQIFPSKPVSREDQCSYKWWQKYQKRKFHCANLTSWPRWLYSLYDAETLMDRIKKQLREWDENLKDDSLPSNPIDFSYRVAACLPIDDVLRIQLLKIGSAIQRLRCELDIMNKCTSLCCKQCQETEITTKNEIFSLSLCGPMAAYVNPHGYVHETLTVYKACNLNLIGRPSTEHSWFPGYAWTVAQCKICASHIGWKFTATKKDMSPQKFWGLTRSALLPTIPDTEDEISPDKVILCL
Sequence (Q9Y616 whole entry, looked up): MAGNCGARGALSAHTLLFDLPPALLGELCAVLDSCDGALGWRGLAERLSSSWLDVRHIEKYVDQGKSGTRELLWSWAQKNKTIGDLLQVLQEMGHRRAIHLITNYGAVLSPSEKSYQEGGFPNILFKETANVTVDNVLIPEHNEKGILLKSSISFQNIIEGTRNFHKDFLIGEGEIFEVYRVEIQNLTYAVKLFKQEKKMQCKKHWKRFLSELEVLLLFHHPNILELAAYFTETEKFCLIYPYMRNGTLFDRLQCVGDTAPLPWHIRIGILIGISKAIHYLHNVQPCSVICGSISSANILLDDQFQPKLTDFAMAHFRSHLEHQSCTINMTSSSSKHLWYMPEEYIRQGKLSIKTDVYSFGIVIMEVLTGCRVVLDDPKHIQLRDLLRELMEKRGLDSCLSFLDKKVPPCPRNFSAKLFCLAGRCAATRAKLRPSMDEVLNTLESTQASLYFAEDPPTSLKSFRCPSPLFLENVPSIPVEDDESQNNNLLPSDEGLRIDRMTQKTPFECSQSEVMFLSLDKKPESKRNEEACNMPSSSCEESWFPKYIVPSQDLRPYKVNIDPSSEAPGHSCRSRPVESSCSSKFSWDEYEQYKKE

compound	Activity, %
CC(C)c1ccn2ncnc(N[C@H]3CC[C@@H](N4CCN(C(=O)CCOCCOCCOCCOCCOCCNc5cccc6c5C(=O)N(C5CCC(=O)NC5=O)C6=O)CC4)CC3)c12 (stereo partly drawn)	49
CC(C)c1ccn2ncnc(N[C@H]3CC[C@@H](N4CCN(C(=O)CCC(=O)NCCCCCCNc5cccc6c5C(=O)N(C5CCC(=O)NC5=O)C6=O)CC4)CC3)c12 (stereo partly drawn)	0
CC(C)c1ccn2ncnc(N[C@H]3CC[C@@H](N4CCN(C(=O)CCC(=O)NCCOCCOCCOCCNc5cccc6c5C(=O)N(C5CCC(=O)NC5=O)C6=O)CC4)CC3)c12 (stereo partly drawn)	34
